# System: HOP-92 NSCLC
# assay-method-text: NCI tumour cell line growth inhibition, 48 h
reported-property: GI50

molecule=COc1ccc2c(c1)C(=O)c1c-2n(CCCCl)c(=O)c2cc(N)ccc12 result="21.2 µM"
molecule=C/C=C(\C)C(=O)O[C@@H]1C=CC(=O)O[C@H]1CNC(=O)[C@H](C)O result="17.4 µM"
molecule=CCOC(=O)c1ccc(NC(=O)c2cccc(NC3=C(Cl)C(=O)N(Cc4ccccc4)C3=O)c2)cc1 result="78.8 µM"
molecule="NC(Cc1c[nH]c2cccc(F)c12)C(=O)O (stereo not given)" result="4110 µM"
molecule=COc1cc(/C=C/c2ccnc3ccccc23)cc(OC)c1OC result="2.07 µM"

These measurements were taken from PubChem BioAssay (NCI).
